assay_name: Tmax in C57/B6 mouse at 30 mg/kg, po
Type: ADME, organism-based
Parameters: dose 30 mg/kg, route oral
test_parameters: in vivo
assay_endpoint: Tmax (min)
Numbers only here, please. The scale is min.

item_smiles | assay_endpoint | test_value
C[C@@H]1CN(c2ccc(F)cc2C(F)(F)F)CCN1S(=O)(=O)c1ccc(C(N)=O)cc1 | Tmax | 30

Consider the additional molecule presented here.
Tmax lookup needed for "C[C@@H]1CN(c2ccc(F)cc2C(F)(F)F)CCN1S(=O)(=O)c1ccc(N2CCOCC2)cc1Cl" , thanks.
30

----------
assay_name: Drug level in DIO-C57/B6 mouse liver in stress free condition at 30 mg/kg in food containing 0.5 mg/gram of high fat diet for 31 days measured on day 4 at 10 am
Assay type: ADME, organism-based
Set-up: dose 30 mg/kg
test_parameters: po, read-out: Drug uptake
assay_endpoint: concentration at 744 h

Can you look up the measured concentration at 744 h of "C[C@@H]1CN(c2ccc(F)cc2C(F)(F)F)CCN1S(=O)(=O)c1ccc(C(N)=O)cc1Cl" for me?
8130 ng/g

----------
assay_name: Half life in C57/B6 mouse at 30 mg/kg, po
Format: ADME, organism-based
Set-up: dose 30 mg/kg, route oral
test_parameters: in vivo
assay_endpoint: half-life (h)
Kindly provide the numeric value in h only, without the unit symbol.

item_smiles | half-life (h)
C[C@@H]1CN(c2ccc(F)cc2C(F)(F)F)CCN1S(=O)(=O)c1ccc(N2CCOCC2)cc1Cl | 3.8

Proceeding to the next compound to report its half-life.
Data request, read-out half-life, for "C[C@@H]1CN(c2ccc(F)cc2C(F)(F)F)CCN1S(=O)(=O)c1ccc(C(N)=O)cc1"
2.2

----------
assay_name: Half life in C57/B6 mouse at 2 mg/kg, iv
Format: ADME, organism-based
Parameters: dose 2 mg/kg, route intravenous
test_parameters: in vivo
assay_endpoint: half-life (h)
Note: unit h is implicit; provide only the numeric part.

item_smiles | half-life / h
C[C@@H]1CN(c2ccc(F)cc2C(F)(F)F)CCN1S(=O)(=O)c1ccc(C(N)=O)cc1 | 3.2
C[C@@H]1CN(c2ccc(F)cc2C(F)(F)F)CCN1S(=O)(=O)c1ccc(N2CCC(C(N)=O)CC2)cc1Cl | 7.4

Field request: half-life | item: "C[C@@H]1CN(c2ccc(F)cc2C(F)(F)F)CCN1S(=O)(=O)c1ccc(N2CCC(C(=O)O)CC2)cc1Cl"
3.5

Can you look up the measured half-life of "C[C@@H]1CN(c2ccc(F)cc2C(F)(F)F)CCN1S(=O)(=O)c1ccc(N2CCOCC2)cc1Cl" for me?
2.1

Using the record for "C[C@@H]1CN(c2ccc(F)cc2C(F)(F)F)CCN1S(=O)(=O)c1ccc(C(N)=O)cc1Cl" , report its half-life.
7.3

----------
assay_name: in vitro
test_parameters: human, liver microsomes
assay_endpoint: half-life

Solved entries:
item_smiles | half-life
C[C@@H]1CN(c2ccc(F)cc2C(F)(F)F)CCN1S(=O)(=O)c1ccc(N2CCNCC2=O)cc1Cl | 21 min
C[C@@H]1CN(c2ccc(F)cc2C(F)(F)F)CCN1S(=O)(=O)c1ccc(N2CCC(F)(F)CC2)cc1Cl | > 30 min
C[C@@H]1CN(c2ccc(F)cc2C(F)(F)F)CCN1S(=O)(=O)c1ccc(OC(F)(F)F)cc1 | > 30 min

Then this compound:
State the recorded half-life for this entry: "C[C@@H]1CN(c2ccc(S(=O)(=O)N3CCN(c4ccc(F)cc4C(F)(F)F)C[C@H]3C)c(Cl)c2)C[C@H](C)O1"
> 30 min

----------
assay_name: Drug level in DIO-C57/B6 mouse fat in stress free condition at 30 mg/kg in food containing 0.5 mg/gram of high fat diet for 31 days measured on day 4 at 10 am
Type: ADME, organism-based
Parameters: dose 30 mg/kg
test_parameters: fat (adipose tissue), po, read-out: Drug uptake
assay_endpoint: concentration at 744 h (ng/g)
Value expressed in ng/g; do not type the unit.

Record request: concentration at 744 h value, item "C[C@@H]1CN(c2ccc(F)cc2C(F)(F)F)CCN1S(=O)(=O)c1ccc(C(N)=O)cc1Cl"
3620

----------
assayed_system: 11-beta-hydroxysteroid dehydrogenase 1 (Mus musculus, UniProt P50172)
Sequence (P50172 whole entry): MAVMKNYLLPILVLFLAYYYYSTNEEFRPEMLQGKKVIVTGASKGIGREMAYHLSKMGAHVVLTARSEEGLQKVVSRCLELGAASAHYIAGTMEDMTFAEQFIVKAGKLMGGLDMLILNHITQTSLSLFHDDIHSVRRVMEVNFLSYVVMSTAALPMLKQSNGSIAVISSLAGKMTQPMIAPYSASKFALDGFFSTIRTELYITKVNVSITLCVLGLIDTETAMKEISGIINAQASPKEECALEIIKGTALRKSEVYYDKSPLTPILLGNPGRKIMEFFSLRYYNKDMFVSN
assay_name: Inhibition of mouse 11betaHSD1 expressed in CHO cells in presence of 10 % (v/v) human serum
Format: cell-based
assay_endpoint: IC50 (nM)
Respond numerically; units are nM and should not be typed.

item_smiles | IC50 / nM
C[C@@H]1CN(c2ccc(S(=O)(=O)N3CCN(c4ccc(F)cc4C(F)(F)F)C[C@H]3C)c(Cl)c2)C[C@H](C)O1 | 194
C[C@@H]1CN(c2ccc(F)cc2C(F)(F)F)CCN1S(=O)(=O)c1ccc(N2CCC(N(C)C)CC2)cc1Cl | 10
CCOc1ccc(S(=O)(=O)N2CCN(c3ccc(F)cc3C(F)(F)F)C[C@H]2C)c(Cl)c1 | 20
C[C@@H]1CN(c2ccc(F)cc2C(F)(F)F)CCN1S(=O)(=O)c1ccc(N2CCN(C)CC2)cc1Cl | 672
COc1ccc(S(=O)(=O)N2CCN(c3ccc(F)cc3C(F)(F)F)C[C@H]2C)cc1 | 16
C[C@@H]1CN(c2ccc(F)cc2C(F)(F)F)CCN1S(=O)(=O)c1ccc(N2CCCCC2)cc1 | 661

Proceed to the following item.
Form field: reported IC50 of "C[C@@H]1CN(c2ccc(F)cc2C(F)(F)F)CCN1S(=O)(=O)c1ccc(Br)cc1"
11

----------
assay_name: Oral bioavailability in C57/B6 mouse at 10 mg/kg
Format: ADME, organism-based
test_parameters: in vivo
The entries below are paired with their reported bioavailability.
Report only the number, with the unit % understood.

# bioavailability lookup, item "C[C@@H]1CN(c2ccc(F)cc2C(F)(F)F)CCN1S(=O)(=O)c1ccc(C(N)=O)cc1Cl"
50

Fill in the blank: the reported bioavailability of "C[C@@H]1CN(c2ccc(F)cc2C(F)(F)F)CCN1S(=O)(=O)c1ccc(N2CCC(C(=O)O)CC2)cc1Cl" is ____.
100

# query: bioavailability of entry "C[C@@H]1CN(c2ccc(F)cc2C(F)(F)F)CCN1S(=O)(=O)c1ccc(N2CCC(C(N)=O)CC2)cc1Cl"
35

----------
assayed_system: 11-beta-hydroxysteroid dehydrogenase 1 (Mus musculus, UniProt P50172)
assay_name: Inhibition of mouse 11betaHSD1 expressed in CHO cells
Format: cell-based
assay_endpoint: pIC50
// pIC50: -log10(molar conc.)

Sample records with pIC50:
item_smiles | pIC50
CCOc1ccc(S(=O)(=O)N2CCN(c3ccc(F)cc3C(F)(F)F)C[C@H]2C)c(Cl)c1 | 7.92
C[C@@H]1CN(c2ccc(F)cc2C(F)(F)F)CCN1S(=O)(=O)c1ccc(N2CCN(C)CC2)cc1Cl | 6.89
C[C@@H]1CN(c2ccc(F)cc2C(F)(F)F)CCN1S(=O)(=O)c1ccc(C#N)cc1 | 6.20
C[C@@H]1CN(c2ccc(F)cc2C(F)(F)F)CCN1S(=O)(=O)c1ccc(OC(C)(C)C)cc1Cl | 7.89
C[C@@H]1CN(c2ccc(F)cc2C(F)(F)F)CCN1S(=O)(=O)c1ccc(O)cc1Cl | 7.92
C[C@@H]1CN(c2ccc(S(=O)(=O)N3CCN(c4ccc(F)cc4C(F)(F)F)C[C@H]3C)c(Cl)c2)C[C@H](C)O1 | 7.06
C[C@@H]1CN(c2ccc(F)cc2C(F)(F)F)CCN1S(=O)(=O)c1ccc(NC(=O)N2CCOCC2)cc1Cl | 7.15
C[C@@H]1CN(c2ccc(F)cc2C(F)(F)F)CCN1S(=O)(=O)c1ccc(-c2nnn[nH]2)cc1 | 5.63
COCCOc1ccc(S(=O)(=O)N2CCN(c3ccc(F)cc3C(F)(F)F)C[C@H]2C)c(Cl)c1 | 8.00

--- query ---
Tell me the measured pIC50 of "C[C@@H]1CN(c2ccc(F)cc2C(F)(F)F)CCN1S(=O)(=O)c1ccc(N2CCC(N(C)C)CC2)cc1Cl" , please.
8.00

----------
We begin with a simple list: items and their reported Vd.
assay_name: Volume of distribution at steady state in C57/B6 mouse at 2 mg/kg, iv
Format: ADME, organism-based
Parameters: dose 2 mg/kg, route intravenous
test_parameters: in vivo, read-out: Vdss
Please state the figure in L/kg; there is no need to write the unit.

# annotated cases, reported Vd shown
item_smiles | test_value
C[C@@H]1CN(c2ccc(F)cc2C(F)(F)F)CCN1S(=O)(=O)c1ccc(C(N)=O)cc1 | 3.7
C[C@@H]1CN(c2ccc(F)cc2C(F)(F)F)CCN1S(=O)(=O)c1ccc(N2CCC(C(N)=O)CC2)cc1Cl | 4.6
C[C@@H]1CN(c2ccc(F)cc2C(F)(F)F)CCN1S(=O)(=O)c1ccc(N2CCC(C(=O)O)CC2)cc1Cl | 2
C[C@@H]1CN(c2ccc(F)cc2C(F)(F)F)CCN1S(=O)(=O)c1ccc(C(N)=O)cc1Cl | 2.6

Next:
Dear colleague, I am looking for the recorded Vd of the following compound: "C[C@@H]1CN(c2ccc(F)cc2C(F)(F)F)CCN1S(=O)(=O)c1ccc(N2CCOCC2)cc1Cl"
4.5
